Reference source: the supplement of paper PMC8728848

Test system: Gal(b1-4)GlcNAc(b1-2)[Gal(b1-4)GlcNAc(b1-6)]Man(a1-6)[Gal(b1-4)GlcNAc(b1-2)Man(a1-3)]Man(b1-4)GlcNAc(b1-4)GlcNAc
Assay name: glycan array binding signal (z-score within array); higher = stronger binding
Measurement parameters: glycan notation: IUPAC condensed, linker removed
The sample as a whole holds a higher share of the strongest signals than the screen did.
Recorded glycan array binding signal (z-score) for the following binders

Below: 2 binders and their reported glycan array binding signal (z-score).
Epa23 (Candida glabrata) (protein) MGSSHHHHHHSSGLVPRGSHMIPNPFEGTINNFPSGCSPNHGLYNRGLTMELYNYSYIHPQSIQSYFNTSTLKKMEKGQCWDPSYLDVNYPRTGYKTHNRFAKVNGIDGILDFEFNPTRSCVPSKGQLPQNYNYPLQFTLSNFTMLLYGYFKPKVTAKHTFTIFADDLLFLNFGAGNAFDCCQQQDTIDDFGNYQAYALWGSDTQQNTLTVNLDANIYYPIRMFYNNRDFKGALNMYFTTDESNTKINDFSGYLFNIPDSSEGCPAHISYETECGNVSG; 0.12
SefD (Salmonella enterica), Q9L6K6 (protein) GAYIIRGQNNSAHKLRIRIGGEDWQPDNSGIGMVSHSDFTNEFNIYYFGNGDIPVDTYLISIYATEIEL; 0.127

Okay, now this binder:
Query string: Query (binder): Epa19 (Candida glabrata) (protein) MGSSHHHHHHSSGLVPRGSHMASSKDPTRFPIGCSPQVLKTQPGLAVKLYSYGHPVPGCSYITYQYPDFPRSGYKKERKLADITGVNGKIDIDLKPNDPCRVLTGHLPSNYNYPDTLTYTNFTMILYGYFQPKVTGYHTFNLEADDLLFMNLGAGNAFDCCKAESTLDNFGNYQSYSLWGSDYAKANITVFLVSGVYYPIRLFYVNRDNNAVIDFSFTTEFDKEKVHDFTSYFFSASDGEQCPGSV ; field requested: glycan array binding signal (z-score)
Result string: -1.26
